- System: HOP-18
- ASSAY_NAME: NCI tumour cell line growth inhibition, 48 h
Activity calls are given as the source filed them. No stated cut-off is given here; in the data, active = GI50 up to about 1.1 µM and inactive = higher.
List of GI50 values.

Worked set:
{"columns": ["MOLECULE", "GI50"],
 "data": [
  ["CS(=O)(=O)OCCCNCCCOS(C)(=O)=O", "1420 µM (inactive)"],
  ["COC(=O)C1Cc2c([nH]c3ccccc23)C=N1 (configuration not stated)", "> 100 µM (inactive)"],
  ["CSc1ccc2c(cc1=O)[C@@H](NC(=O)c1cccc([N+](=O)[O-])c1)CCc1cc(O)c(O)c(O)c1-2", "> 100 µM (inactive)"]
]}

Lookup result for Cc1cc2c(C(C)C)c(O)c(O)c(C=O)c2c(O)c1-c1c(C)cc2c(C(C)C)c(O)c(O)c(C=O)c2c1O [GOSSYPOL] ; measured GI50: 3.69 µM (inactive)

Lookup result for N=C(N)NS(=O)(=O)c1ccc(NCc2c3ccccc3nc3ccccc23)cc1 ; measured GI50: 9.18 µM (inactive)

Lookup result for O=C1C(CN2CCCCC2)CCCC1CN1CCCCC1 (configuration not stated) ; measured GI50: 14.7 µM (inactive)

* * *

- Tested on: TK-10
- ASSAY_NAME: NCI tumour cell line growth inhibition, 48 h
Active and inactive are the calls of the source. No stated cut-off is given here; in the data, active = GI50 up to about 1.1 µM and inactive = higher.
The reply should be one of these categories: active, inactive

{"columns": ["MOLECULE", "CLASSIFICATION"],
 "data": [
  ["CC1OCC2OC(C)OC(C3C4=C(CC(C)(C)CC4=O)OC4=C3C(=O)CC(C)(C)C4)C2O1 (stereo unspecified)", "inactive"],
  ["COc1cc(C/C=C/c2ccccc2)c(OC)cc1O", "inactive"],
  ["CC(C)(CO)N1C(=O)c2ccccc2C1(O)c1ccc(Cl)cc1 (stereo unspecified)", "inactive"],
  ["CCC1(C)C=Cc2c(cc(OC)c3c(=O)c4ccccc4n(C)c23)O1 (stereo unspecified)", "inactive"],
  ["O=S(=O)(O)c1ccc2cc(/N=N\\c3cc(S(=O)(=O)O)c4cccnc4c3O)ccc2c1", "inactive"],
  ["C=C1c2nc3ccccc3n2C=C(c2ccc(OC)cc2)N1c1ccccc1", "inactive"],
  ["COc1ccc2nc3c([N+](=O)[O-])ccc(NCCN(C)C)c3c(N)c2c1", "inactive"],
  ["Clc1ccc(/C=N/C23CC4CC(CC(C4)C2)C3)c(Cl)c1", "inactive"],
  ["N#CC(C(=O)O)C(c1c(Cl)cccc1Cl)C(C#N)C(=O)O (stereo unspecified)", "inactive"],
  ["C/C(=N/NC(=S)Nc1ccc([N+](=O)[O-])cc1)c1cccc(/C(C)=N\\NC(=S)Nc2ccc([N+](=O)[O-])cc2)n1", "active"]
]}

Hi, do you know how CN1CCOC1c1ccccc1O (stereo unspecified) came out in this test? inactive

Hi, do you know how CCCNC(=O)NNC(=O)c1c[nH]c2nc(C)ccc2c1=O came out in this test? inactive

Hi, do you know how C=C(Cl)/C(=C\Br)CCC(Cl)C(C)C.C=C(Cl)/C(=C\Cl)CCC(Cl)C(C)C (stereo unspecified) came out in this test? inactive

Hi, do you know how COc1cc(OC)cc(Oc2nc3ccc(C(F)(F)F)cc3nc2-c2ccccc2)c1 came out in this test? inactive

Hi, do you know how CCOC(=O)CSC(=O)NCCCl came out in this test? inactive

Hi, do you know how O=[N+]([O-])c1nccn1CCCNc1ccnc2cc(Cl)ccc12 came out in this test? inactive

Hi, do you know how CCOC(=O)C1S/C(=N\c2ccc(Cl)cc2Cl)N=C1C (stereo unspecified) came out in this test? inactive

Hi, do you know how Nc1nc(CCc2n[nH]c(N)n2)n[nH]1 came out in this test? inactive

Hi, do you know how O=C1C(Cl)C(c2ccccc2Cl)N1n1cnc2ccccc2c1=O (stereo unspecified) came out in this test? inactive

Hi, do you know how CC(=O)O[C@H]1CCC2[C@@H]3CCC4=C(O)C(=O)C(C#N)C[C@]4(C)C3CC[C@@]21C (stereo partly specified) came out in this test? inactive

Hi, do you know how CSc1ccc2c(cc1=O)[C@@H](NC(=O)c1cccc([N+](=O)[O-])c1)CCc1cc(O)c(O)c(O)c1-2 came out in this test? inactive
